src = patent US5952327A

# SYSTEM TESTED: neutral endopeptidase (NEP) (E.C. 3.4.24.11) (Homo sapiens)
# Sequence (P08473 whole entry, species assumed): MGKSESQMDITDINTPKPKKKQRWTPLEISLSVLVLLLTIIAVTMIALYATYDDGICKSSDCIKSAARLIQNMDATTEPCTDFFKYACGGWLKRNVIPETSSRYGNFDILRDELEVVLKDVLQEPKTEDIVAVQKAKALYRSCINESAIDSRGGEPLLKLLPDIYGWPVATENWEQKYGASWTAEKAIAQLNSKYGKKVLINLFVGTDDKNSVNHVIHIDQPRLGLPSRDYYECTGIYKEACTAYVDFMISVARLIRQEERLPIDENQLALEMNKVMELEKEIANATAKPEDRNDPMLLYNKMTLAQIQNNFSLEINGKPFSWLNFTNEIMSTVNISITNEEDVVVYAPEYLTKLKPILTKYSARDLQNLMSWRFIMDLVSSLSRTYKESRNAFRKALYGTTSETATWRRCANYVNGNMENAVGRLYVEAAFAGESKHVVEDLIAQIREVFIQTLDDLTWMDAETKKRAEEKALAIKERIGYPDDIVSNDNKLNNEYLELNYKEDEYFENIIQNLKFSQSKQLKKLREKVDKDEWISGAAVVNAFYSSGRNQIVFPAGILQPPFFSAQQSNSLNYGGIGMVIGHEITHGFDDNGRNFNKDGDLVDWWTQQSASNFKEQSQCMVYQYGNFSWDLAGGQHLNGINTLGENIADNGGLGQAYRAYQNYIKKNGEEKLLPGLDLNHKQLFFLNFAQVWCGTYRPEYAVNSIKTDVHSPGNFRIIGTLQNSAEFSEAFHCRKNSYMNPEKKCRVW
# PROTOCOL DETAILS: In-vitro NEP inhibitory action (hydrolytic degradation of Met-encephalin)
# CONDITION PARAMETERS: purified NEP, Met-encephalin substrate, pH 7.4, 37° C.; read-out: IC50 value for NEP inhibition
# Experimental: In this test, the measure of the inhibitory activity of the substances determined was their IC50 value. […] The incubation solutions were incubated for 30 minutes at 37° C. in a shaking water bath. […] The stopped incubation solution was then centrifuged at 12,000×g for 3 minutes, and the concentrations of unreacted substrate and of hydrolysis products formed by the enzymatic reaction were determined in the supernatant. […]
MEASURED PARAMETER: IC50 (nM)
Respond with the bare value in nM.

Noted IC50 for O=C(O)CN1C(=O)[C@@H](NC(=O)C2(CP(=O)(O)O)CCCC2)CCc2ccccc21 [Example 2] , tested on neutral endopeptidase (NEP) (E.C. 3.4.24.11) (Homo sapiens): 1.7
